The following are reported AC50 results, target or system Sodium-dependent noradrenaline transporter (Homo sapiens). Also: assay procedure not described here.

Worked examples, 3 molecules total:
N=c1ccn2c(n1)O[C@H]1[C@H](O)[C@@H](CO)O[C@H]12 [ANCITABINE]; > 30 µM
O=C(Nc1ccc(Cl)cc1)Nc1ccc(Cl)c(Cl)c1 [TRICLOCARBAN]; 0.863 µM
CC(C)(C)NC[C@H](O)COc1ccccc1C1CCCC1 [PENBUTOLOL]; 13.4 µM

Can you share its AC50? I mean this molecule: CC(C)Nc1ncccn1 [ISAXONINE]
> 30 µM

====

# SYSTEM_NAME: 5-hydroxytryptamine receptor 2A (Homo sapiens, UniProt P28223); also: assay procedure not described here
# Sequence (P28223 whole entry): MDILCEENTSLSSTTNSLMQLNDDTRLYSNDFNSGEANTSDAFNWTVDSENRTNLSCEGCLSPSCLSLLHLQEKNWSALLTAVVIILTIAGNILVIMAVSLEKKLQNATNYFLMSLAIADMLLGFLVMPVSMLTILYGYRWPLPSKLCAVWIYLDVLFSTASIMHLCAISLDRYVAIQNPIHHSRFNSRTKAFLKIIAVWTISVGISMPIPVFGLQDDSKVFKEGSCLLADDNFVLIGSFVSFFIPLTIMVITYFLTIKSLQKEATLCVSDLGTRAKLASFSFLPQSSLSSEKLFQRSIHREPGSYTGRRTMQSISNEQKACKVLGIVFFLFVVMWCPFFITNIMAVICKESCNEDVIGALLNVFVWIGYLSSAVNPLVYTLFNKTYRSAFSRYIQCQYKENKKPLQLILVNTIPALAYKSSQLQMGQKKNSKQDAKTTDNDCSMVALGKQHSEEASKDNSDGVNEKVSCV
# Assay type: functional, cell-based
Let's look at some compounds and their measured AC50.

COc1ccccc1OCC(O)CN1CCN(CC(=O)Nc2c(C)cccc2C)CC1 (stereo not drawn); > 30 µM
Clc1ccc(CCCOCCCN2CCCCC2)cc1; > 30 µM
Cc1cc(C)c(NC(=O)CN(CC(=O)O)CC(=O)O)c(C)c1Br; > 30 µM
CC(C)=CCC/C(C)=C/C=C/C(C)=C/C=C/C(C)=C/C=C/C=C(C)/C=C/C=C(C)/C=C/C=C(\C)CCC=C(C)C; > 30 µM
CN1C(C(=O)Nc2ccccn2)=C(O)c2sc(Cl)cc2S1(=O)=O; > 30 µM
O=C(OCC(O)CO)c1ccccc1Nc1ccnc2cc(Cl)ccc12 (stereo not drawn); > 30 µM
CN1C(=O)C(O)N=C(c2ccccc2Cl)c2cc(Cl)ccc21 (stereo not drawn); > 30 µM
CCOC(=O)[N-]c1cn(N2CCOCC2)n[o+]1; > 30 µM
NC(=O)OCC(COC(N)=O)c1ccccc1 [FELBAMATE]; > 10 µM
NS(=O)(=O)Cc1noc2ccccc12 [ZONISAMIDE]; > 10 µM

Query for 5-hydroxytryptamine receptor 2A (Homo sapiens, UniProt P28223): what AC50 does the record show for `CCc1c(Cl)c(O)c(Cl)c(O)c1C(=O)O[C@H]1[C@H](O)[C@H](OC)[C@H](OC/C2=C\C=C\C[C@H](O)/C(C)=C/[C@H](CC)[C@@H](O[C@@H]3OC(C)(C)[C@@H](OC(=O)C(C)C)[C@H](O)[C@@H]3O)/C(C)=C/C(C)=C/C[C@@H]([C@@H](C)O)OC2=O)O[C@@H]1C` ?
18 µM

Then CNC1Cc2ccccc2N(C)c2ccccc21 (stereo not drawn) ?
14 µM

// next record COc1ccc(C(=O)Nc2ccccc2CCC2CCCCN2C)cc1 (stereo not drawn) [ENCAINIDE]
2.2 µM

Same question for `COc1ccc2c3c1O[C@H]1C(=O)CC[C@@]4(O)[C@@H](C2)N(C)CC[C@]314` please.
> 30 µM

What about `CC[C@@H](C(N)=O)N1CCCC1=O` ?
> 30 µM

O=C(NCCNCC(O)COc1ccc(O)cc1)N1CCOCC1 (stereo not drawn) ?
> 30 µM

Thanks! And Fc1ccc(C(c2ccccc2)(c2ccccc2F)n2ccnc2)cc1 (stereo not drawn) ?
> 30 µM

Same thing, different compound: OC(CNCC(O)C1CCc2cc(F)ccc2O1)C1CCc2cc(F)ccc2O1 (stereo not drawn)
7.1 µM

====

# reported AC50; entries follow
# SYSTEM_NAME: 5-hydroxytryptamine receptor 2C (Homo sapiens); also: assay procedure not described here
# Sequence (P28335 whole entry): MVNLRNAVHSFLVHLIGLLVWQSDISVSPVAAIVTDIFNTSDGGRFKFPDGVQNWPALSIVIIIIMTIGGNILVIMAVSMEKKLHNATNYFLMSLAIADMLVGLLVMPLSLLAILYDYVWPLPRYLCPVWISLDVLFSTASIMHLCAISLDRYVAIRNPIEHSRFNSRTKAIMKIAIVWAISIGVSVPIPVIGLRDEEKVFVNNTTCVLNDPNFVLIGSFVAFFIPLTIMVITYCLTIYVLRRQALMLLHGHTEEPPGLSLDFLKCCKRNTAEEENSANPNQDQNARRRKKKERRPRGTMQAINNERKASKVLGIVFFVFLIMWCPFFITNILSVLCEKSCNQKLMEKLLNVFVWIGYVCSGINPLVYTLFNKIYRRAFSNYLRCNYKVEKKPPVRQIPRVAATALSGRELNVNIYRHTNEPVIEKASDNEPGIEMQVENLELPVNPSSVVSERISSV

CC(=O)Nc1ccc(O)cc1 [ACETAMINOPHEN]; > 30 µM

Under 5-hydroxytryptamine receptor 2C (Homo sapiens): AC50 value of CCN(CC)C(=O)N[C@H]1C[C@@H]2c3cccc4[nH]cc(c34)C[C@H]2N(C)C1 [TERGURIDE] ?
0.21 µM

Also check `CCOC(=O)[C@H](CCc1ccccc1)N[C@@H](C)C(=O)N1C(=O)N(C)C[C@H]1C(=O)O`
> 30 µM

And C[C@]12CC[C@H]3[C@@H](CCC4=CC(=O)CC[C@@]43C)[C@@H]1CC[C@@H]2O [TESTOSTERONE] ?
> 30 µM

Here is the next molecule: COC(=O)C1=C(C)NC(C)=C(C(=O)OC2CCCN(Cc3ccccc3)C2)C1c1cccc([N+](=O)[O-])c1 (stereo not given) [BENIDIPINE]
> 30 µM

// provenance: ChEMBL document CHEMBL5291721
